Cited source for all entries: PubChem BioAssay AID651771

- Tested on: SK-MEL-5 DCT mRNA qPCR, delta-delta-Ct, overnight
- Assay Procedure: suppression of MITF target gene DCT mRNA, dose response, orthogonal assay for MITF inhibitor project, cell-based, SK-MEL-5, RT-qPCR, dry powder samples (AID 651771)
Results filed as inconclusive are left out.
Assignment: determine reported AC40 for the given molecules.

In: I would be grateful if you could share the reported AC40 for NS(=O)(=O)c1ccc(NC2=CC(=O)c3ccccc3C2=O)cc1 .
Out: 0.0555 µM

In: I have this molecule here, NC1=C(NS(=O)(=O)c2ccc(Br)cc2)C(=O)c2ccccc2C1=O , and I need its recorded AC40.
Out: 12.8 µM

In: Quick check: AC40 of COC1=C(Nc2ccccc2)C(=O)c2ccccc2C1=O ?
Out: 0.838 µM

In: Reported AC40 for CC(C)N1CCN(C2=C(Nc3ccc(F)cc3F)C(=O)c3ccccc3C2=O)CC1 : what is it?
Out: 3.67 µM

In: Quick one: AC40 of Cc1ccc(NC2=CC(=O)c3ccccc3C2=O)cc1 ?
Out: 0.277 µM

In: Value lookup for AC40; key = CCN1CCN(C2=C(NC(=O)c3ccccc3)C(=O)c3ccccc3C2=O)CC1
Out: 0.884 µM

In: // lookup AC40 for O=C1C=C(NS(=O)(=O)c2cccs2)C(=O)c2ccccc21
Out: 4.64 µM

In: What value of measured AC40 is listed for O=C1C=C(Nc2ccc([N+](=O)[O-])c(C(F)(F)F)c2)C(=O)c2ccccc21 ?
Out: 1.05 µM

In: Can you look up the measured AC40 of COC1=C(NS(=O)(=O)c2cccs2)C(=O)c2ccccc2C1=O for me?
Out: 9.01 µM

In: What does the data say about its AC40? Entry: Cc1nc2ccccc2n1/N=C/c1ccc([N+](=O)[O-])s1
Out: 1.54 µM

In: // AC40 lookup, key: O=C(NC1=C(Cl)C(=O)c2ccccc2C1=O)c1ccccc1
Out: 0.336 µM
